- Tested on: Streptococcus pneumoniae GYR 1171
reported property: MIC (µg/mL)
// note: answer is a bare numeric in µg/mL

Ask | Endpoint output: MIC of CC[C@H]1OC(=O)C(C)(F)C(=O)[C@H](C)[C@@H](O[C@@H]2O[C@H](C)C[C@H](N(C)C)[C@H]2O)[C@](C)(OCC#CC(=O)c2ccccc2)C[C@@H](C)C(=O)[C@H](C)[C@H]2NC(=O)O[C@@]21C (some centres unmarked) [Example 23] . Value?
Reply | 0.03

----------
- System: Streptococcus pyogenes 930
- assay details: In vitro agar dilution MIC, organism code MM
- Assay type: cell-based
- condition set: Table 1B, unit assumed
- Method: Representative compounds of the present invention were assayed in vitro for antibacterial activity as follows: Twelve petri dishes containing successive aqueous dilutions of the test compound mixed with 10 mL of sterilized Brain Heart Infusion (BHI) agar (Difco 0418-01-5) were prepared. Each plate was inoculated with 1:100 (or 1:10 for slow-growing strains, such as Micrococcus and Streptococcus) dilutions of up to 32 different microorganisms, using a Steers replicator block. […]
reported property: MIC (µg/mL)
// note: answer is a bare numeric in µg/mL

Take a look at these entries with their results.
CC[C@H]1OC(=O)C(C)(F)C(=O)[C@H](C)[C@@H](O[C@@H]2O[C@H](C)C[C@H](N(C)C)[C@H]2O)[C@](C)(OCC#CC(=O)c2cccs2)C[C@@H](C)C(=O)[C@H](C)[C@H]2NC(=O)O[C@@]21C (some centres unmarked) : 100
CC[C@H]1OC(=O)[C@@](C)(F)C(=O)[C@H](C)[C@@H](O[C@@H]2O[C@H](C)C[C@H](N(C)C)[C@H]2O)[C@](C)(OC/C=C/c2ccc3nccnc3c2)C[C@@H](C)C(=O)[C@H](C)[C@H]2NC(=O)O[C@@]21C : 0.2
CC[C@H]1OC(=O)[C@@](C)(F)C(=O)[C@H](C)[C@@H](O[C@@H]2O[C@H](C)C[C@H](N(C)C)[C@H]2O)[C@](C)(OC/C=C/c2cnc3ccc(N)cc3c2)C[C@@H](C)C(=O)[C@H](C)[C@H]2NC(=O)O[C@@]21C : 0.2
CC[C@H]1OC(=O)[C@@](C)(F)C(=O)[C@H](C)[C@@H](O[C@@H]2O[C@H](C)C[C@H](N(C)C)[C@H]2O)[C@](C)(OC/C=C/c2cnc3ccc([N+](=O)[O-])cc3c2)C[C@@H](C)C(=O)[C@H](C)[C@H]2NC(=O)O[C@@]21C : 0.39

Next compound, please.
Ask | Value wanted: MIC (Streptococcus pyogenes 930) of entry CC[C@H]1OC(=O)C(C)(F)C(=O)[C@H](C)[C@@H](O[C@@H]2O[C@H](C)C[C@H](N(C)C)[C@H]2O)[C@](C)(OCC#CC(=O)c2ccc(Cl)nc2)C[C@@H](C)C(=O)[C@H](C)[C@H]2NC(=O)O[C@@]21C (some centres unmarked)
Reply | 6.2

----------
- Tested on: Escherichia coli SS
- assay details: In vitro agar dilution MIC, organism code RR
- Format: cell-based
- condition set: Table 1B, in µg/mL (unit assumed)
This listing pairs molecules with measured MIC.

C=CCO[C@]1(C)C[C@@H](C)C(=O)[C@H](C)[C@H]2NC(=O)O[C@]2(C)[C@@H](CC)OC(=O)[C@@](C)(F)C(=O)[C@H](C)[C@H]1O[C@@H]1O[C@H](C)C[C@H](N(C)C)[C@H]1O : 0.78

Ask | Endpoint output: MIC of CC[C@H]1OC(=O)[C@@](C)(F)C(=O)[C@H](C)[C@@H](O[C@@H]2O[C@H](C)C[C@H](N(C)C)[C@H]2O)[C@](C)(OC/C=C/c2cnc3ccc(NC(=O)OC(C)(C)C)cc3c2)C[C@@H](C)C(=O)[C@H](C)[C@H]2NC(=O)O[C@@]21C . Value?
Reply | 6.2
